Target: Human-derived DNA-PK kinase (Homo sapiens, UniProt P78527)
Construct: Eurofins (contract laboratory that ran the test)
Assay: DNA-PK enzyme activity test (HTRF, phosphorylation of GST-cMyc-p53)
Format: biochemical
Endpoint Label: IC50 (nM)

- Compound: "CN1C(=O)C2(CCC(C)(O)CC2)c2c1cnc1ccc(-c3ccc(OCCCN4CCCCC4)nc3)cc21 (stereo not shown) [Example 28]"
  Endpoint Label: "IC50"
  Obs Value: 334

P: COCc1ccc(-c2ccc3ncc4c(c3c2)C2(CCOCC2)C(=O)N4C)cn1 [Example 31]
Q: CN(C)CCCOc1ccc(-c2cc3c4c(cnc3cc2F)N(C)C(=O)C42CCOCC2)cn1 [Example 33]
stdin: Of P versus Q , which is the one with smaller reported IC50? Use the label to indicate which entry you chose.
stdout: P

P: CN1C(=O)C2(CCOCC2)c2c1cnc1ccc(-c3ccc(OCCCN4CC[C@@H](F)C4)nc3)cc21 [Example 4]
Q: O=C1N(C2CC2)c2cnc3ccc(-c4ccc(OCCCN5CCCCC5)nc4)cc3c2C12CCOCC2 [Example 30]
R: CN(C)CCCOc1ccc(-c2ccc3ncc4c(c3c2)C2(CCC(C)(O)CC2)C(=O)N4C)cn1 (stereo not shown) [Example 27]
stdin: List by increasing IC50. Answer with the labels in sequence, matching the requested order.
stdout: P, R, Q
(P: 62 nM, R: 99 nM, Q: 475 nM)

P: CN(C)CCCOc1ccc(-c2ccc3ncc4c(c3c2)C2(CCC(O)CC2)C(=O)N4C)cn1 (stereo not shown) [Example 26]
Q: CN(C)CCCOc1ccc(-c2ccc3ncc4c(c3c2)C2(CCN(CC(F)F)CC2)C(=O)N4C)cn1 [Example 12]
R: CN1C(=O)C2(CCOCC2)c2c1cnc1ccc(-c3ccc(OCCCN4CC[C@H](F)C4)nc3)cc21 [Example 3]
S: CN(C)CCCOc1ccc(-c2ccc3ncc4c(c3c2)C2(CCN(C(=O)C3CC3)CC2)C(=O)N4C)cn1 [Example 18]
T: COC(=O)N1CCC2(CC1)C(=O)N(C)c1cnc3ccc(-c4ccc(OCCCN5CCCCC5)nc4)cc3c12 [Example 20]
stdin: Output the entries ranked by IC50 from maximum down to minimum. Answer with the labels in sequence, matching the requested order.
stdout: S, T, P, R, Q
(S: 343 nM, T: 129 nM, P: 76 nM, R: 48 nM, Q: 26 nM)

---

Target: Human-derived ATM kinase (Homo sapiens, UniProt Q13315)
Construct: Eurofins (contract laboratory that ran the test)
Sequence (Q13315 whole entry): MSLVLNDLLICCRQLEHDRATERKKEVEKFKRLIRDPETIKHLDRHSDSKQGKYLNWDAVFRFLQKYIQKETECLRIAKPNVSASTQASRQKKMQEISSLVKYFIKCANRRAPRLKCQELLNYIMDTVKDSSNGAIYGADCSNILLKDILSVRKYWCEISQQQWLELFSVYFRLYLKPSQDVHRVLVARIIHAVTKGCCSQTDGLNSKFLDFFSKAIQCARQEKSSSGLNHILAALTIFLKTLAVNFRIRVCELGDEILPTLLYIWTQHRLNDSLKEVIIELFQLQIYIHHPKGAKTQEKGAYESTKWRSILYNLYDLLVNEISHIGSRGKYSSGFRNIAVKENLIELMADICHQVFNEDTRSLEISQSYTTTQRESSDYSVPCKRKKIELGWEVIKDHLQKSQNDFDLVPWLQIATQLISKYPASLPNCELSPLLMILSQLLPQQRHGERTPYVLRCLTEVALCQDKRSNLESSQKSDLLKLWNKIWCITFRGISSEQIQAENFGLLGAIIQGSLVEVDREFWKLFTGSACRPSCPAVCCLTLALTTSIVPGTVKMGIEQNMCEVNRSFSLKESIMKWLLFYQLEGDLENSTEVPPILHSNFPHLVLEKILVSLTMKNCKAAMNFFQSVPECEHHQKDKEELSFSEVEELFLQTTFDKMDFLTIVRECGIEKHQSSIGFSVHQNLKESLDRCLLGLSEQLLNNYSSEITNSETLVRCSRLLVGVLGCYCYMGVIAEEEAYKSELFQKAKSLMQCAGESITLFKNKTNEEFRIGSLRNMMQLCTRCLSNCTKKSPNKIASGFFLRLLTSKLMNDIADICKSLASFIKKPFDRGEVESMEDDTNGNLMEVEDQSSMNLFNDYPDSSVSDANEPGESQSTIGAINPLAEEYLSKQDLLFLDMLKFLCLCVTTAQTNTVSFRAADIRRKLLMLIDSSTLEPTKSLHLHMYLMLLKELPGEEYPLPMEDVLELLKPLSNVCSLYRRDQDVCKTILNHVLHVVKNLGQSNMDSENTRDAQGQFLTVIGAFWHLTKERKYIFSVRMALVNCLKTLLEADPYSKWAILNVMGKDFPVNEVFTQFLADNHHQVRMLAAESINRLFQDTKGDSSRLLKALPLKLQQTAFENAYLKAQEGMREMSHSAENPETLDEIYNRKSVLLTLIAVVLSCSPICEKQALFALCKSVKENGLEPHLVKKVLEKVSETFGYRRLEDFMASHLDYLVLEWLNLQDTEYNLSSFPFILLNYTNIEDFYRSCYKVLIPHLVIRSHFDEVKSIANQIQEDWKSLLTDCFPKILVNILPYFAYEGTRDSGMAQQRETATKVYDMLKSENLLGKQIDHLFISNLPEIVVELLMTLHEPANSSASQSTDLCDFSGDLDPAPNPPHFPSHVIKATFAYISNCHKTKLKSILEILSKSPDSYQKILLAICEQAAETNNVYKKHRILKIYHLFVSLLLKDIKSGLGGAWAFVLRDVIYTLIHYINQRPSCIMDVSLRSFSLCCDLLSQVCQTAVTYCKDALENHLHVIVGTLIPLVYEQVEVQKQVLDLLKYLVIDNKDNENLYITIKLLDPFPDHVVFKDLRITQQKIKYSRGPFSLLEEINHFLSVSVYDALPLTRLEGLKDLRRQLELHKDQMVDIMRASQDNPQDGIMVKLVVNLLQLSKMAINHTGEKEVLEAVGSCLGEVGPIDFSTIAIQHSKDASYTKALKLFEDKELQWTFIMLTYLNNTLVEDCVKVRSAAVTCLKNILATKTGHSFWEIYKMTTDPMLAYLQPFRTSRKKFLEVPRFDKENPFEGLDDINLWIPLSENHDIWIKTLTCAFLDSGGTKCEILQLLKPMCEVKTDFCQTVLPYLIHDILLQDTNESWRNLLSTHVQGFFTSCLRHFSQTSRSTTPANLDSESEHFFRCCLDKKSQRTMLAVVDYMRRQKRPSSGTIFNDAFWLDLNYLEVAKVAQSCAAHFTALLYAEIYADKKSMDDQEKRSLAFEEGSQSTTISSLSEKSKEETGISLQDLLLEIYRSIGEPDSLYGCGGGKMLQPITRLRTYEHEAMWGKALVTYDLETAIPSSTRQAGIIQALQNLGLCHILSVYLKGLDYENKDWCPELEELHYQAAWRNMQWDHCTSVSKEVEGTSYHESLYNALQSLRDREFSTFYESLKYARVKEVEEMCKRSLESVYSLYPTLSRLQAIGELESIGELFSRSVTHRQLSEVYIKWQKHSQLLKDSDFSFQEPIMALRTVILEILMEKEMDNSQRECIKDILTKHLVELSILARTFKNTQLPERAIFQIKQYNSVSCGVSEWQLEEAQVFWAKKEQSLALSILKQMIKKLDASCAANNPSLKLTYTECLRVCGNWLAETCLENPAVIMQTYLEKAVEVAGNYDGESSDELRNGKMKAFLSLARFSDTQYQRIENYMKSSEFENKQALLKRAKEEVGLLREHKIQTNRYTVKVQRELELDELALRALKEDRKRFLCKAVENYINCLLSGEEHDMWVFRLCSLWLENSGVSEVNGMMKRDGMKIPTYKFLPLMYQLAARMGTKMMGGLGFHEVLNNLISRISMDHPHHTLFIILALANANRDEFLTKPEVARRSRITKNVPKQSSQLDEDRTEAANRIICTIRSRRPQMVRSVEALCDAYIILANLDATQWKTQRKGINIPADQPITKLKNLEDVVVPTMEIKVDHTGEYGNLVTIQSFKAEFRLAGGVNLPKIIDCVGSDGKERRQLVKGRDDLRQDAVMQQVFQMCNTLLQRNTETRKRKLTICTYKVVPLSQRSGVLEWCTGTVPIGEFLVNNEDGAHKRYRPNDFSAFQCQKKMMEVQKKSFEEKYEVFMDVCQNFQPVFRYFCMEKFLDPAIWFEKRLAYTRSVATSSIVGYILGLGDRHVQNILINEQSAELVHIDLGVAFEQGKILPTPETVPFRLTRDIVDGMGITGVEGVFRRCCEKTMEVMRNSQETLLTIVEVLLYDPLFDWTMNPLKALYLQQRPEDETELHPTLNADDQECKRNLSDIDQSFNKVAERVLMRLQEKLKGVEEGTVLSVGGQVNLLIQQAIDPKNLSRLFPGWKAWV
Assay: ATM enzyme activity test (HTRF, phosphorylation of GST-cMyc-p53)
Type: biochemical
Endpoint Label: IC50 (nM)

Field: example entries. Status: answers known.
- Smiles Str: "O=C1N(C2CC2)c2cnc3ccc(-c4ccc(OCCCN5CCCCC5)nc4)cc3c2C12CCOCC2"
  Obs Value: 2
- Smiles Str: "CN1C(=O)C2(CCOCC2)c2c1cnc1ccc(-c3ccc(OCCCN4CCC(F)CC4)nc3)cc21"
  Obs Value: 2
- Smiles Str: "CN(C)CCCOc1ccc(-c2ccc3ncc4c(c3c2)C2(CCN(CC(F)(F)F)CC2)C(=O)N4C)cn1"
  Obs Value: 4
- Smiles Str: "CN(C)CCCOc1ccc(-c2ccc3ncc4c(c3c2)C2(CCNCC2)C(=O)N4C)cn1"
  Obs Value: 3
- Smiles Str: "CN1C(=O)C2(CCOCC2)c2c1cnc1ccc(-c3ccc(OCCCN4CC[C@H](F)C4)nc3)cc21"
  Obs Value: 1
- Smiles Str: "CC(=O)N1CCC2(CC1)C(=O)N(C)c1cnc3ccc(-c4ccc(OCCCN(C)C)nc4)cc3c12"
  Obs Value: 3

a: CN(C)CCCOc1ccc(-c2ccc3ncc4c(c3c2)C2(CCOCC2)C(=O)N4C)cn1
b: CN1C(=O)C2(CCOCC2)c2c1cnc1ccc(-c3ccc(OCCCN(C4CC4)C4CC4)nc3)cc21
stdin: Hi, I'm comparing a with b and wondering which one has the bigger number for IC50. Any idea? Use the label to indicate which entry you chose.
stdout: b

---

Target: Human-derived DNA-PK kinase (Homo sapiens, UniProt P78527)
Construct: Eurofins (contract laboratory that ran the test)
Experiment: DNA-PK enzyme activity test (HTRF, phosphorylation of GST-cMyc-p53)
Type: biochemical
Endpoint Label: IC50 (nM)

Field: example entries. Status: answers known.
- Compound: "CC(C)OC(=O)N1CCC2(CC1)C(=O)N(C)c1cnc3ccc(-c4ccc(OCCCN(C)C)nc4)cc3c12"
  Unit Abbrev: "nM"
  IC50: 509
- Compound: "CN1C(=O)C2(CCN(CC(F)(F)F)CC2)c2c1cnc1ccc(-c3ccc(OCCCN4CCCCC4)nc3)cc21"
  Unit Abbrev: "nM"
  IC50: 46
- Compound: "CN1C(=O)C2(CCOCC2)c2c1cnc1cc(F)c(-c3ccc(OCCCN4CCCCC4)nc3)cc21"
  Unit Abbrev: "nM"
  IC50: 561
- Compound: "CN1C(=O)C2(CCOCC2)c2c1cnc1ccc(-c3ccc(OCCCN(C4CC4)C4CC4)nc3)cc21"
  Unit Abbrev: "nM"
  IC50: 800

I: CN1C(=O)C2(CCOCC2)c2c1cnc1ccc(-c3ccc(OCCCN4CCCCC4)nc3)cc21
II: CC(=O)N1CCC2(CC1)C(=O)N(C)c1cnc3ccc(-c4ccc(OCCCN(C)C)nc4)cc3c12
stdin: Hi, I'm comparing I with II and wondering which one has the bigger number for IC50. Any idea? Use the label to indicate which entry you chose.
stdout: II
(II: 352 nM, I: 80 nM)

---

Target: Human-derived DNA-PK kinase (Homo sapiens, UniProt P78527)
Construct: Eurofins (contract laboratory that ran the test)
Experiment: DNA-PK enzyme activity test (HTRF, phosphorylation of GST-cMyc-p53)
Format: biochemical
Endpoint Label: IC50 (nM)

- Compound: "CN(C)CCCOc1ccc(-c2ccc3ncc4c(c3c2)C2(CCNCC2)C(=O)N4C)cn1 [Example 8]"
  Unit Abbrev: "nM"
  Obs Value: 99
- Compound: "COC(=O)N1CCC2(CC1)C(=O)N(C)c1cnc3ccc(-c4ccc(OCCCN(C)C)nc4)cc3c12 [Example 19]"
  Unit Abbrev: "nM"
  Obs Value: 77
- Compound: "CCN1CCC2(CC1)C(=O)N(C)c1cnc3ccc(-c4ccc(OCCCN(C)C)nc4)cc3c12 [Example 10]"
  Unit Abbrev: "nM"
  Obs Value: 80
- Compound: "CC(C)N1CCC2(CC1)C(=O)N(C)c1cnc3ccc(-c4ccc(OCCCN(C)C)nc4)cc3c12 [Example 15]"
  Unit Abbrev: "nM"
  Obs Value: 41
- Compound: "COC1CCC2(CC1)C(=O)N(C)c1cnc3ccc(-c4ccc(OCCCN(C)C)nc4)cc3c12 (centres unmarked) [Example 25]"
  Unit Abbrev: "nM"
  Obs Value: 92
- Compound: "CN(C)CCCOc1ccc(-c2ccc3ncc4c(c3c2)C2(CCOCC2)C(=O)N4C)cn1 [Example 1]"
  Unit Abbrev: "nM"
  Obs Value: 78
- Compound: "CN(C)CCCOc1ccc(-c2ccc3ncc4c(c3c2)C2(CCN(CC(F)(F)F)CC2)C(=O)N4C)cn1 [Example 13]"
  Unit Abbrev: "nM"
  Obs Value: 27
- Compound: "CN1C(=O)C2(CCOCC2)c2c1cnc1ccc(-c3cnn(C)c3)cc21 [Example 2]"
  Unit Abbrev: "nM"
  Obs Value: 73
- Compound: "CN(C)CCCOc1ccc(-c2ccc3ncc4c(c3c2)C2(CCN(C)CC2)C(=O)N4C)cn1 [Example 9]"
  Unit Abbrev: "nM"
  Obs Value: 83
- Compound: "CN(C)CCCOc1ccc(-c2ccc3ncc4c(c3c2)C2(CCN(C3CC3)CC2)C(=O)N4C)cn1 [Example 22]"
  Unit Abbrev: "nM"
  Obs Value: 14
- Compound: "CCN1CCC2(CC1)C(=O)N(C)c1cnc3ccc(-c4ccc(OCCCN5CCCCC5)nc4)cc3c12 [Example 11]"
  Unit Abbrev: "nM"
  Obs Value: 243

---

Molecular target: Human-derived DNA-PK kinase (Homo sapiens, UniProt P78527)
Construct: Eurofins (contract laboratory that ran the test)
Assay: DNA-PK enzyme activity test (HTRF, phosphorylation of GST-cMyc-p53)
Format: biochemical
Listed compounds paired with reported IC50

Field: example entries. Status: answers known.
- Smiles Str: "CN(C)CCCOc1ccc(-c2cc3c4c(cnc3cc2Cl)N(C)C(=O)C42CCOCC2)cn1"
  Measurement Target: "Human-derived DNA-PK kinase (Homo sapiens, UniProt P78527)"
  Endpoint Label: "IC50"
  Obs Value: "> 1000 nM"
- Smiles Str: "O=C1N(C2CC2)c2cnc3cc(F)c(-c4ccc(OCCCN5CCCCC5)nc4)cc3c2C12CCOCC2"
  Measurement Target: "Human-derived DNA-PK kinase (Homo sapiens, UniProt P78527)"
  Endpoint Label: "IC50"
  Obs Value: "> 1000 nM"

Note: attention shifts to another entry.
stdin: Query IC50 for CN(C)CCCOc1ccc(-c2cc3c4c(cnc3cc2F)N(C2CC2)C(=O)C42CCOCC2)cn1
stdout: > 1000 nM
